Origin of the recorded values: PubChem BioAssay (NCI)

System: TK-10 renal
Test: NCI-60 one-dose screen, 48 h (100 = growth as untreated, 0 = no growth, -100 = all killed)
Settings: 10 µM unless noted
This is part of a sample that, as a whole, favours compounds with a hit. Of some 83,000 tested, about 20% had one in any assay.
readout.name: growth (%)

[[record]]
molecule = "O=C(/C=C/c1ccc(C(F)(F)F)cc1)Nc1ccc(C=C2c3ccccc3C(=O)c3ccccc32)cc1"
test_target = "TK-10 renal"
measurement_unit = "%"
recorded_value = 70.2

[[record]]
molecule = "COc1cccc2c1C(=O)c1c(O)c3c(c(O)c1C2=O)C[C@](O)(C(=O)CO)C[C@H]3O[C@@H]1C[C@@H](NC(=O)CCCN(C)C2(c3ccc(F)cc3)CC3CCC2C3)[C@H](O)[C@@H](C)O1 (some centres undefined)"
test_target = "TK-10 renal"
measurement_unit = "%"
recorded_value = 54.6

[[record]]
molecule = "N#C/C(=C\\c1ccc(-c2ccc(Cl)c(Cl)c2)o1)c1nc(-c2ccco2)cs1"
test_target = "TK-10 renal"
measurement_unit = "%"
recorded_value = -7.19

[[record]]
molecule = "O=C(Cc1ccc(/C=C/C(=O)c2ncc[nH]2)cc1)Nc1ccccc1"
test_target = "TK-10 renal"
measurement_unit = "%"
recorded_value = 49.1

